- Tested on: SNB-19 CNS
- MEASUREMENT_PROTOCOL: NCI tumour cell line growth inhibition, 48 h
MEASURE_NAME: TGI

{"COMPOUND": "Cc1ccc(S(=O)(=O)c2ccc(C)cc2[N+](=O)[O-])c([N+](=O)[O-])c1", "OBSERVED_VALUE": "> 100 µM"}
{"COMPOUND": "O=C1CC(n2ccnc2)c2c(Cl)sc(Cl)c21 (stereo not given)", "OBSERVED_VALUE": "38.3 µM"}
{"COMPOUND": "CC(CC(=O)N1C2CC3CCC2(CS1(=O)=O)C3(C)C)[Si](C)(C)C (stereo not given)", "OBSERVED_VALUE": "> 100 µM"}

**Q:** State its TGI for this compound: O=C1C(Cl)C(c2ccc(O)cc2)N1n1cnc2ccccc2c1=O (stereo not given)
**A:** > 100 µM

**Q:** State its TGI for this compound: CC[O-].CC[O-].O=C1C=C([O-])C(=O)c2ccccc21.O=C1C=C([O-])C(=O)c2ccccc21.[Ti+4]
**A:** > 100 µM

**Q:** State its TGI for this compound: CCN1C(=O)/C(=c2\sc3n(c2=O)C2C(NN=3)N(CC)C(=O)N2CC)c2ccccc21 (stereo not given)
**A:** 63 µM

**Q:** State its TGI for this compound: Cc1nc(C)c(N2CCN(Cc3ccccc3)CC2)c(=O)[nH]1
**A:** > 100 µM

###

- Test system: MOLT-4 leukemia
- MEASUREMENT_PROTOCOL: NCI tumour cell line growth inhibition, 48 h
Recorded TGI by entry

{"COMPOUND": "Nc1ccc(-c2nc3ccccc3s2)cc1CO", "MEASURE_NAME": "TGI", "OBSERVED_VALUE": "> 100 µM"}
{"COMPOUND": "Nc1ncnc2c1ccn2CC#CCO", "MEASURE_NAME": "TGI", "OBSERVED_VALUE": "> 100 µM"}
{"COMPOUND": "O=C(O)CN1C(=O)OC(c2ccccc2)C1=O (configuration not stated)", "MEASURE_NAME": "TGI", "OBSERVED_VALUE": "> 100 µM"}
{"COMPOUND": "c1cc2c(cc1C1OCC3C(c4ccc5c(c4)OCO5)OCC13)OCO2 (configuration not stated)", "MEASURE_NAME": "TGI", "OBSERVED_VALUE": "> 100 µM"}
{"COMPOUND": "NNC(=O)/C(NC(=O)c1ccccc1)=C(\\N)c1cccc([N+](=O)[O-])c1", "MEASURE_NAME": "TGI", "OBSERVED_VALUE": "> 100 µM"}

**Q:** Please indicate recorded TGI of CCOC(=O)c1c(C)n([O-])c2cc(F)c(F)cc2[n+]1=O measured with MOLT-4 leukemia.
**A:** 6.62 µM

**Q:** Please indicate recorded TGI of Cc1ccc(C2=NN(c3ccc(S(=O)(=O)NC(=O)NCc4ccccc4)cc3)C(c3ccc(N(C)C)cc3)C2)c(C)c1 (configuration not stated) measured with MOLT-4 leukemia.
**A:** 73.8 µM

**Q:** Please indicate recorded TGI of COc1ccc2c(O)c1-c1c(OC)ccc(c1O)SSc1ccc(OC)c(c1O)-c1c(OC)ccc(c1O)SS2 measured with MOLT-4 leukemia.
**A:** > 100 µM

**Q:** Please indicate recorded TGI of Nc1nc(N)c2cc(S(=O)(=O)c3ccc4ccccc4c3)ccc2n1 measured with MOLT-4 leukemia.
**A:** > 100 µM

**Q:** Please indicate recorded TGI of CC(=O)[O-].CC(=O)[O-].O=C([CH-]C(=O)c1ccccc1)c1ccccc1.[Nd+3].[OH3+] measured with MOLT-4 leukemia.
**A:** > 100 µM

**Q:** Please indicate recorded TGI of CCCCCc1cc(/C=C2/N=C(c3ccc[nH]3)C=C2OC)[nH]c1C measured with MOLT-4 leukemia.
**A:** 0.134 µM

**Q:** Please indicate recorded TGI of Cc1cn(C2CC(O)C(Cn3nncc3Cn3cnc4c(N)ncnc43)O2)c(=O)[nH]c1=O (configuration not stated) measured with MOLT-4 leukemia.
**A:** > 100 µM

**Q:** Please indicate recorded TGI of COc1ccc(OC)c(C2=C(c3cn(C)c4ccccc34)C(=O)NC2=O)c1 measured with MOLT-4 leukemia.
**A:** > 25 µM

**Q:** Please indicate recorded TGI of COC(=O)c1cc(/C=C/C(=O)Cc2ccccc2)cn1S(=O)(=O)c1ccccc1 measured with MOLT-4 leukemia.
**A:** > 100 µM

**Q:** Please indicate recorded TGI of CC(=Nc1ccc(Cl)cc1)c1ccncc1 measured with MOLT-4 leukemia.
**A:** > 100 µM

**Q:** Please indicate recorded TGI of CC1(C)CC(=O)c2c(-c3ccc(Cl)cc3)c(C#N)c(=S)n(C3OC(CO)C(O)C(O)C3O)c2C1 (configuration not stated) measured with MOLT-4 leukemia.
**A:** > 100 µM

**Q:** Please indicate recorded TGI of Cc1cc(NS(=O)(=O)c2ccc(NO)cc2)no1 measured with MOLT-4 leukemia.
**A:** > 100 µM

**Q:** Please indicate recorded TGI of COC(C)=NCCC1=CCCCC1 measured with MOLT-4 leukemia.
**A:** > 100 µM

**Q:** Please indicate recorded TGI of COc1ccc2nc3cccc([N+](=O)[O-])c3c(NCCC(=O)O)c2c1 measured with MOLT-4 leukemia.
**A:** > 10 µM

**Q:** Please indicate recorded TGI of CC(C)c1cnc(-c2cc(Cl)ccc2F)cc1Nc1ccncc1C(=O)NC(CO)CO measured with MOLT-4 leukemia.
**A:** 39.3 µM

**Q:** Please indicate recorded TGI of Cc1cc(S(=O)(=O)Nc2nc3ccccc3c(=O)n2Cc2ccco2)c(S)cc1Cl measured with MOLT-4 leukemia.
**A:** > 100 µM

**Q:** Please indicate recorded TGI of N#CC1=C(N)N=C(N2CCOCC2)C(C#N)C12Nc1ccccc1S2 (configuration not stated) measured with MOLT-4 leukemia.
**A:** > 100 µM
